assay: Acute toxicity test on Zebrafish larvae, emetine / BEM and staurosporine / BST liposomes, 96 h; assay type: in vivo, Zebrafish (Danio rerio); settings: 96 h incubation, staurosporine free or in BST
metric.name: LC50 at 96 h (nM)
Numbers only, in nM.

Exercise: # get_value(readout='LC50 at 96 h', item= CN[C@@H]1C[C@H]2O[C@@](C)([C@@H]1OC)n1c3ccccc3c3c4c(c5c6ccccc6n2c5c31)C(=O)NC4 )
Key: 17

----------
Assay: Acute toxicity test on Zebrafish larvae, emetine and 14 pH EM liposomes, 24 and 48 h
Design: species or system Zebrafish (Danio rerio)
Settings: in vivo, 48 h exposure, 2 dpf larvae, calculated for emetine, read-out: half maximal lethal concentration (LC50)
Procedure: In order to compare the toxicity of emetine and 14 pH EM liposomes with emetine, an acute toxicity test was conducted on Zebrafish (Danio rerio). The test was designed to determine the acute or lethal toxicity of the formulations on the embryonic stages of the fish. Briefly, Zebrafish 2 dpf larvae were treated with emetine and 14 pH EM liposomes with emetine for 24 and 48 hours at concentrations ranging from 0.73 μM to 125 μM calculated for emetine. […]
metric.name: LC50 at 48 h (µM)
One number for each entry, in µM.

Exercise: For CC[C@H]1CN2CCc3cc(OC)c(OC)cc3[C@@H]2C[C@@H]1C[C@H]1NCCc2cc(OC)c(OC)cc21 [emetine] , what is its reported LC50 at 48 h?
Key: 5.64
